Tested on: INS-1E rat beta cells, no cytokines, CellTiter-Glo ATP, 48 h
PROTOCOL DESCRIPTION: cytokine-free beta-cell viability effect – INS-1E rat cells, ATP luminescence, cherry pick, counter-screen for beta-cell apoptosis protection project, dose response (AID 463229)
The entries below come with measured AC50 values attached.

>  <COMPOUND>
C(=N\Nc1ncnc2sc3c(c12)CCC3)/c1cccs1

>  <AC50>
9.08 µM

$$$$
>  <COMPOUND>
Cc1cc(N/N=C/c2c(O)ccc3ccccc23)nc(-c2ccccc2O)n1

>  <AC50>
11.7 µM

$$$$
>  <COMPOUND>
COCC1CCCCN1C(=O)c1cc(COc2ccc3ncccc3c2)on1 (stereo unspecified)

>  <AC50>
7.39 µM

$$$$
>  <COMPOUND>
O=C(N/N=C\c1cc(Cl)ccc1O)c1ccc(S(=O)(=O)N2CCCCC2)cc1

>  <AC50>
6.44 µM

$$$$
>  <COMPOUND>
Cc1nc2c(-c3ccc(Cl)cc3)c(C)[nH]n2c(=O)c1Cc1ccccc1

>  <AC50>
5.46 µM

$$$$
>  <COMPOUND>
CN1CCN(C(c2ccc(C(F)(F)F)cc2)c2ccc3cccnc3c2O)CC1 (stereo unspecified)

>  <AC50>
4.56 µM

$$$$
>  <COMPOUND>
O=[N+]([O-])c1cccc2c(N3CCCC3)ccnc12

>  <AC50>
7.28 µM

$$$$
>  <COMPOUND>
Cc1ccc(NC(=O)c2cc(S(=O)(=O)NCCC3=CCCCC3)ccc2F)cc1

>  <AC50>
7.48 µM

$$$$
>  <COMPOUND>
O=C(C#Cc1ccccc1)Nc1cccc(F)c1

>  <AC50>
11.8 µM

$$$$
>  <COMPOUND>
O=C(/C=C/c1ccc(-c2ccccc2)cc1)NCc1cccnc1

>  <AC50>
9.36 µM

$$$$
>  <COMPOUND>
Cc1ccc(NC(=O)Cn2c(=O)oc3cc(S(=O)(=O)N4CCC(C)CC4)ccc32)cc1C

>  <AC50>
16 µM

$$$$

====

The entries below come with measured AC50 values attached.
Tested on: INS-1E rat beta cells, no cytokines, CellTiter-Glo ATP, 48 h
PROTOCOL DESCRIPTION: cytokine-free beta-cell viability effect – INS-1E rat cells, ATP luminescence, cherry pick, counter-screen for beta-cell apoptosis protection project, dose response (AID 463229)

>  <QUERY SMILES>
Cc1ccccc1NC1=C/C(=N\S(=O)(=O)c2cccs2)c2ccccc2C1=O

>  <STUDY TARGET>
INS-1E rat beta cells, no cytokines, CellTiter-Glo ATP, 48 h

>  <AC50>
1.79 µM

$$$$
>  <QUERY SMILES>
O=C(NC1=C(Nc2ccc(Cl)cc2)C(=O)c2ccccc2C1=O)c1ccccc1

>  <STUDY TARGET>
INS-1E rat beta cells, no cytokines, CellTiter-Glo ATP, 48 h

>  <AC50>
21.8 µM

$$$$
>  <QUERY SMILES>
O=C(/C(=C/c1ccc(Cl)cc1)c1nc2ccccc2[nH]1)c1ccccc1

>  <STUDY TARGET>
INS-1E rat beta cells, no cytokines, CellTiter-Glo ATP, 48 h

>  <AC50>
4.04 µM

$$$$
>  <QUERY SMILES>
Cn1c(SCC(=O)N/N=C/c2ccc([N+](=O)[O-])s2)nnc1-c1ccccc1

>  <STUDY TARGET>
INS-1E rat beta cells, no cytokines, CellTiter-Glo ATP, 48 h

>  <AC50>
5.11 µM

$$$$
>  <QUERY SMILES>
O=C1C(Cl)=C(NCc2cccnc2)C(=O)c2ccccc21

>  <STUDY TARGET>
INS-1E rat beta cells, no cytokines, CellTiter-Glo ATP, 48 h

>  <AC50>
14.3 µM

$$$$
